For each of the compounds below, state its GI50.
- System: KM12
- measurement_description: NCI tumour cell line growth inhibition, 48 h
Activity calls are given as the source filed them. Cut-off read from the data, not from the text of the source: active = GI50 up to about 1.1 µM and inactive = higher.

q: Note GI50 for the compound shown: S=C=NCc1ccccc1 [BENZYL ISOTHIOCYANATE]
a: 0.895 µM (active)

q: Return GI50 (reported value) for this compound: CC1ON2CCCC2[C@H]1C(=O)N1C2CC3CCC2(CS1(=O)=O)C3(C)C (stereo not given in full)
a: > 100 µM (inactive)

q: Assign GI50 to the following record: c1cc2c(cc1NC1=NCCO1)CCCC2
a: 2.77 µM (inactive)

q: Using known records, supply GI50 for CCCCn1c(C)c2c(c1C)C(=O)N(CC(O)CN1CCc3ccccc3C1)C2=O (stereo not given)
a: 57 µM (inactive)

q: Check the records and state GI50 for O=C1C[C@H]2[C@@H](O1)[C@@H](O)CN1C(=O)c3ccccc3[C@H]21
a: > 100 µM (inactive)

###

What GI50 was measured for each of the following?
- Tested on: RXF 393
- measurement_description: NCI tumour cell line growth inhibition, 48 h
The source made the active and inactive calls. Rule as the data show it: active = GI50 up to about 1.1 µM and inactive = higher.

q: Fill in GI50 for CCOC(=O)c1c[nH]c2cc3c(cc2c1=O)CCS3 tested with RXF 393.
a: 57.8 µM (inactive)

q: State recorded GI50 with RXF 393, entry COc1cc2c(cc1OC)C(=O)/C(=C/c1cc(Cl)cc(Cl)c1)C2 , no comment.
a: 7.41 µM (inactive)

q: Report GI50 on RXF 393 for this entry: COc1nc(NC2OC(COC(C)=O)C(OC(C)=O)C(OC(C)=O)C2OC(C)=O)c(/N=C/C=N/c2c(NC3OC(COC(C)=O)C(OC(C)=O)C(OC(C)=O)C3OC(C)=O)nc(OC)n(C)c2=O)c(=O)n1C (stereo not given)
a: 30.5 µM (inactive)

q: Under RXF 393, report GI50 for COC(=O)c1c(C)[n+]([O-])c2cc(Cl)c(Cl)cc2[n+]1[O-]
a: 32.9 µM (inactive)

q: Write down the reported GI50 (system: RXF 393) of N#CC(/C(CCCC(=O)Nc1cccc([N+](=O)[O-])c1)=N\NC(=O)c1c(O)ccc2ccccc12)c1nc2ccccc2s1 (stereo not given)
a: 33.4 µM (inactive)

q: Lab note: record GI50 of COC(c1ccc(C(C)(C)C)cc1)(c1ccc(C(C)(C)C)cc1)c1cc(C(O)(c2cc(C(OC)(c3ccc(C(C)(C)C)cc3)c3ccc(C(C)(C)C)cc3)c(C)cc2C)c2cc(C(OC)(c3ccc(C(C)(C)C)cc3)c3ccc(C(C)(C)C)cc3)c(C)cc2C)c(C)cc1C tested on RXF 393.
a: > 100 µM (inactive)

q: Provide RXF 393 GI50 reading for Cc1cc(N(CCC#N)S(=O)(=O)c2ccccc2)ccc1C=O .
a: > 100 µM (inactive)

q: Enter recorded GI50 with RXF 393 for CO[C@@H]1C[C@H]2[C@@H]3CC[C@H]([C@H](C)COC(C)=O)[C@@]3(C)CC[C@@H]2[C@@]2(C)CC[C@H]3C[C@]312 here.
a: > 100 µM (inactive)

q: Report the value of GI50 obtained on RXF 393 for CC1=CCC[C@@]2(C)C(CC[C@@H]2C(C)/C=C/C(C)C)c2ccc(cc2C(=O)O)C[C@@H](O)CC1 (stereo not given in full) .
a: 15.9 µM (inactive)

q: Print RXF 393 GI50 for C=C(C)C(=O)O[C@H]1CC2(CO)O[C@@H]2CC/C(COC(C)=O)=C/C2OC(=O)C(=C)[C@@H]21 (stereo not given in full) .
a: 12.1 µM (inactive)

q: Fill in GI50 for O=C(/C=C/c1ccc(Br)cc1)c1ccc(NCc2nc3ccccc3[nH]2)cc1 tested with RXF 393.
a: 4.35 µM (inactive)

q: Please indicate recorded GI50 of Clc1ccccc1C(c1ccccc1)(c1ccccc1)n1ccnc1 [CLOTRIMAZOLE] measured with RXF 393.
a: 17.4 µM (inactive)

q: Give GI50 only, for Nc1nc(N)c(-c2ccccc2)c(C(=O)Nc2nccs2)n1 , using RXF 393 data.
a: > 100 µM (inactive)

q: Retrieve GI50 on RXF 393; query CC(C)(C)OC(=O)NC(CCCCNC(=O)OCc1ccccc1)C(=O)NCCNc1ccc(NCCNC(=O)C(CCCCNC(=O)OCc2ccccc2)NC(=O)OC(C)(C)C)c2c1C(=O)c1ccccc1C2=O (stereo not given)
a: 25.7 µM (inactive)

q: Please indicate recorded GI50 of CC1=C(C(=O)Nc2cc(F)c(F)cc2F)C(c2ccc3c(c2)OCO3)C(C(=O)Nc2cc(F)c(F)cc2F)=C(C)N1 measured with RXF 393.
a: 11.5 µM (inactive)
